Reference source: the supplement of paper PMC10567573

Kindly state protein stability index for each of the entries shown.
B1: SMARCE1 (parent)
chain: YHNSPAYLAYINAKSRAEAALEEE

- Variants of: B1
- test method notes: protein stability index of a GFP-peptide fusion (GPS, HEK-293T) (PSI 1-6); higher = more stable;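 further: lentivirally expressed fusions sorted by FACS into six bins by GFP to DsRed ratio, PSI derived from sequencing read proportions per bin multiplied by bin number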
- condition set: c terminus: a fixed tail appended
One number for each entry.

Answered cases to consult:
Complete the entry with protein stability index for "E22H"
2.83

Complete the entry with protein stability index for "P5Y"
2.31

Complete the entry with protein stability index for "R16E"
2.33

Can you give me protein stability index for all of these, one by one?
1. A20C
2. R16M
3. A9R
4. E18K
5. H2Y

1. 2.27
2. 1.81
3. 1.96
4. 3.05
5. 4.42

Can you give me protein stability index for all of these, one by one?
1. N12P
2. A19W
3. K14F

3.69
2.48
2.35
